Origin of the recorded values: patent US9499530B2

Reported IC50 is given for each of the following compounds.
# TARGET_OF_ASSAY: KDR (Vascular Endothelial Growth Factor Receptor 2) (Homo sapiens, UniProt P35968)
# Sequence (P35968 20-1356): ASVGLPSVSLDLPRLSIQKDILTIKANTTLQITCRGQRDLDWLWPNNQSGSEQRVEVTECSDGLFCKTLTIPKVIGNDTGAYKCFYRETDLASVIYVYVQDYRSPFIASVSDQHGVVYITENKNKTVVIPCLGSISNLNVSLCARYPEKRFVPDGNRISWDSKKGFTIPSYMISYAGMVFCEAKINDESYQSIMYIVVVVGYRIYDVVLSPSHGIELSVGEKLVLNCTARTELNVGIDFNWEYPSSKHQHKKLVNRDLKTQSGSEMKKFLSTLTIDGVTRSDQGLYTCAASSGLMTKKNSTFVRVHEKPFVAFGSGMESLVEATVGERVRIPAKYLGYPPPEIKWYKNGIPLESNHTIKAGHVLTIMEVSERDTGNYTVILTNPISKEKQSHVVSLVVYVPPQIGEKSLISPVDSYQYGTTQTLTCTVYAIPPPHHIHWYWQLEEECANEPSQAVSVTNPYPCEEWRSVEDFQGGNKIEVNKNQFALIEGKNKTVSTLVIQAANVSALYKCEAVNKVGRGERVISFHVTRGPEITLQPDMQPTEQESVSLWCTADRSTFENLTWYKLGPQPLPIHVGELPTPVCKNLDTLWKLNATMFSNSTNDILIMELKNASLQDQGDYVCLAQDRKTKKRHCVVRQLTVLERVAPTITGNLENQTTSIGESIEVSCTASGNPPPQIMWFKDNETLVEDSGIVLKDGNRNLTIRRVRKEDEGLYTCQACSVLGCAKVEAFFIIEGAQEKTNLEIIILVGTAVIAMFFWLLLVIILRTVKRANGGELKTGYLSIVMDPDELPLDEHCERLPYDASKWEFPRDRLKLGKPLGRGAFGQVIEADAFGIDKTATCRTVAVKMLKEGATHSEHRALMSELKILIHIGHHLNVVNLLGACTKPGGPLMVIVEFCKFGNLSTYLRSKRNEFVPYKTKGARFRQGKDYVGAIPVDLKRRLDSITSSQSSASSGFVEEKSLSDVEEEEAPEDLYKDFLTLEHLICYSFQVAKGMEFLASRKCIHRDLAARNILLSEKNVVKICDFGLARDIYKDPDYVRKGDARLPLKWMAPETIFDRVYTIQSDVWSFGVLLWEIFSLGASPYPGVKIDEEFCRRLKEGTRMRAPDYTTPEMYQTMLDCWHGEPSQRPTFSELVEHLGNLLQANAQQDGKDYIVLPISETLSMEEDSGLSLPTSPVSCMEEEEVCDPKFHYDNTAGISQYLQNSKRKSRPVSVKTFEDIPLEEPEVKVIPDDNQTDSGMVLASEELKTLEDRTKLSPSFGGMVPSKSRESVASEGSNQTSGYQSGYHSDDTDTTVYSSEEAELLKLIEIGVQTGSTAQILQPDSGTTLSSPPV

Below: 4 compounds and their reported IC50.
Problem: What value of IC50 has been reported for the following compound? OCC(CO)NCc1ccc(-c2ccc3ncnc(Nc4ccc(OCc5cccc(F)c5)c(Cl)c4)c3c2)o1 [MS6·dimethanesulfonate]
Solution: < 10 µM

Problem: What value of IC50 has been reported for the following compound? OCCCCNCc1ccc(-c2ccc3ncnc(Nc4ccc(OCc5cccc(F)c5)c(Cl)c4)c3c2)o1 [MS1·dimethanesulfonate]
Solution: < 10 µM

Problem: What value of IC50 has been reported for the following compound? CCCNCc1ccc(-c2ccc3ncnc(Nc4ccc(F)c(Cl)c4)c3c2)o1
Solution: > 10 µM

Problem: What value of IC50 has been reported for the following compound? OCCNCc1ccc(-c2ccc3ncnc(Nc4ccc(OCc5cccc(F)c5)c(Cl)c4)c3c2)o1 [MS27·dimethanesulfonate]
Solution: < 10 µM

---
Problem: What value of IC50 has been reported for the following compound? OCCN(CCO)Cc1ccc(-c2ccc3ncnc(Nc4ccc(OCc5cccc(F)c5)c(Cl)c4)c3c2)o1 [MS18·dimethanesulfonate]
Solution: < 10 µM
